- ASSAYED_SYSTEM: human TfR ECD (human)
- Sequence (chain, as listed by the source): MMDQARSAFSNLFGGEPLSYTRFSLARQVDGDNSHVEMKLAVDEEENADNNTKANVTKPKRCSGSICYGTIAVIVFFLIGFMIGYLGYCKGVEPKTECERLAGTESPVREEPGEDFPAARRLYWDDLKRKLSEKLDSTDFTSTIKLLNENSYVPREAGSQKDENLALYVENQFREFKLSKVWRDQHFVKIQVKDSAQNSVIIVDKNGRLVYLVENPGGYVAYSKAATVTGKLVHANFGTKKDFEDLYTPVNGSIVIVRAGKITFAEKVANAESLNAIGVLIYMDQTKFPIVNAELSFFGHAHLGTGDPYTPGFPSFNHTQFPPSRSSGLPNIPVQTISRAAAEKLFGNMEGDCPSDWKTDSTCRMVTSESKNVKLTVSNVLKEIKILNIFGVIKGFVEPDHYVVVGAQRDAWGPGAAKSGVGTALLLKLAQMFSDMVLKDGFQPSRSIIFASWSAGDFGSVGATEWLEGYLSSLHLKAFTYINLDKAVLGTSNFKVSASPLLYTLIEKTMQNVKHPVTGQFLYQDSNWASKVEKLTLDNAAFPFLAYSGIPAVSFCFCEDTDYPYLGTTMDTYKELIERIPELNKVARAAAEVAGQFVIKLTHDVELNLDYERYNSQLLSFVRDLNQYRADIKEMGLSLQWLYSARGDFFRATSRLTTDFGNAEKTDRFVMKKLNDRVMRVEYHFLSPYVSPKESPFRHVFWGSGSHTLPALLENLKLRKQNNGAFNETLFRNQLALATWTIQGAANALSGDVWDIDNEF
- MEASUREMENT_PROTOCOL: ELISA
PROPERTY: EC50 (ng/mL)
Give your result in ng/mL as a bare value.

Exercise: // query EC50 value for entry hu15G11.v5 HC G26A (antibody, V domains shown) VH: EVQLVQSGAEVKKPGASVKVSCKASAYTFTSYWMHWVRQAPGQRLEWIGEINPTNGRTNYIEKFKSRATLTVDKSASTAYMELSSLRSEDTAVYYCARGTRAYHYWGQGTMVTVSS VL: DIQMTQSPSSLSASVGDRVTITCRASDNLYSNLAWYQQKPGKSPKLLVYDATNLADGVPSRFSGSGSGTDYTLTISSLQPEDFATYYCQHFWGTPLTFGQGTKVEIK
Solution: 1.1
